Tested on: CYP3A
measurementNotes: CYP3A catalytic activity (erythromycin-N-demethylation), mouse hepatic microsomes
Type: in vitro ADME
conditionsUsed: 12.5 µM
Recorded CYP3A catalytic activity values for a group of compounds are listed next.
Please reply with the bare figure in nmol/mg/min and do not write the unit itself.

Reported CYP3A catalytic activity for CC1(O)CCC(C(C)(C)O)CC1 (stereo in doubt) [Trans-terpin, trans-terpin] was 0.71

response.value for CC1(C)CCCCC1 (field: CYP3A catalytic activity) = 0.73

Memo: O=C(O)C1C2C=CC(C2)C1C(=O)O (stereo not drawn) , reported CYP3A catalytic activity: 0.73

Kindly note the recorded CYP3A catalytic activity for C[C@]12CC(=O)C[C@@]1(C)CC(=O)C2 , which is 0.71

Record summary for CC12CCC(CC1=O)C2(C)C (stereo not drawn) : reported CYP3A catalytic activity = 0.68

The reported value for CCCCCC12CCC(C(=O)O)(CC1)CC2 in terms of CYP3A catalytic activity is 0.61

Per the records, this compound ( COC(=O)[C@H]1CC[C@H](C(=O)OC)CC1 ) has CYP3A catalytic activity equal to 0.72

Measured CYP3A catalytic activity, CC12CCC(CC1)C(C)(C)O2 : 0.68

The measured CYP3A catalytic activity associated with O=C(O)C1CC2C=CC1O2 (stereo not drawn) reads 0.67

###

System: UGT
measurementNotes: p-nitrophenol glucuronidation, rat hepatic microsomes
Type: in vitro ADME
conditionsUsed: 12.5 µM
measuredProperty: p-nitrophenol glucuronidation, % of Control (%)
Give your result in % as a bare value.

Worked cases, answers included:
COC(=O)[C@H]1CC[C@H](C(=O)OC)CC1: 90.77
C[C@]12CC(=O)C[C@@]1(C)CC(=O)C2: 98.32
CC12CCC(CC1)C(C)(C)O2: 90.25
CCCCCC12CCC(C(=O)O)(CC1)CC2: 103.95
O=C(O)C1C2C=CC(C2)C1C(=O)O (stereo not drawn): 96.42
CC1(O)CCC(C(C)(C)O)CC1 (stereo in doubt) [Trans-terpin, trans-terpin]: 104.14
O=C(O)C1CC2C=CC1O2 (stereo not drawn): 102.50
CC1(C)CCCCC1: 100.53

Next up:
Entry CC12CCC(CC1=O)C2(C)C (stereo not drawn) ; assay system UGT; p-nitrophenol glucuronidation, % of Control recorded at 102.59

###

Tested on: UGT
measurementNotes: p-nitrophenol glucuronidation, mouse hepatic microsomes
Format: in vitro ADME
conditionsUsed: 25 µM
measuredProperty: p-nitrophenol glucuronidation activity (µmol/mg/min)
Express your answer in µmol/mg/min, writing the number without its unit.

Sample O=C(O)C1C2C=CC(C2)C1C(=O)O (stereo not shown) ; p-nitrophenol glucuronidation activity observed: 2.23

Sample O=C(O)C1CC2C=CC1O2 (stereo not shown) ; p-nitrophenol glucuronidation activity observed: 3.26

Looking up COC(=O)[C@H]1CC[C@H](C(=O)OC)CC1 , I see its p-nitrophenol glucuronidation activity listed as 2.73

Lab note: measured p-nitrophenol glucuronidation activity of CC1(C)CCCCC1 was 2.19

Summary for this compound, CC12CCC(CC1=O)C2(C)C (stereo not shown) : p-nitrophenol glucuronidation activity is 2.31

Per the records, this compound ( CC12CCC(CC1)C(C)(C)O2 ) has p-nitrophenol glucuronidation activity equal to 1.90

# p-nitrophenol glucuronidation activity of CC1(O)CCC(C(C)(C)O)CC1 (stereo in doubt) [Trans-terpin, trans-terpin] = 2.33
